# Read-out: E-selectin (Homo sapiens)
# ASSAY_EXPLANATION: BSK_3C_Eselectin: BioMAP Diversity Plus: 3C Assay for Eselectin Biomarker Activity (AID 2283015)
# MEASUREMENT_PARAMETERS: primary human endothelial cells (HUVEC); actives raise or lower the signal
Calls of active or inactive are those of the source. How the source made its calls: active means hit-call score of the fitted dose curve at least 0.9, where 1 is the maximum; inactive means score below 0.9.
Classes used: active, inactive

[[record]]
molecule = "CC(C)C1(C)N=C(c2nc3ccccc3cc2C(=O)O)NC1=O (stereo unspecified)"
label_class = "inactive"

[[record]]
molecule = "COc1cnc(OC)n2nc(NS(=O)(=O)c3c(OCC(F)F)cccc3C(F)(F)F)nc12"
label_class = "inactive"

[[record]]
molecule = "CCCN(CCC)c1c([N+](=O)[O-])cc(S(N)(=O)=O)cc1[N+](=O)[O-]"
label_class = "active"

[[record]]
molecule = "CCOP(=S)(OCC)SCn1c(=O)oc2cc(Cl)ccc21"
label_class = "inactive"

[[record]]
molecule = "C=CCC1=C(C)[C@@H](OC(=O)[C@@H]2[C@@H](C=C(C)C)C2(C)C)CC1=O"
label_class = "active"

[[record]]
molecule = "Cc1c(F)c(F)c(COC(=O)C2C(/C=C(\\Cl)C(F)(F)F)C2(C)C)c(F)c1F (stereo unspecified)"
label_class = "active"

[[record]]
molecule = "CCCCOC(=O)c1ccccc1C(=O)OCCCC"
label_class = "inactive"

[[record]]
molecule = "COC(=O)C=C(C)OP(=O)(OC)OC"
label_class = "inactive"

[[record]]
molecule = "CCc1nn(C)c(C(=O)NCc2ccc(C(C)(C)C)cc2)c1Cl"
label_class = "active"

[[record]]
molecule = "COc1nc(C)nc(NC(=O)NS(=O)(=O)c2ccccc2CCC(F)(F)F)n1"
label_class = "inactive"

[[record]]
molecule = "CCON=C(CC)C1=C(O)CC(c2c(C)cc(C)cc2C)CC1=O (stereo unspecified)"
label_class = "inactive"


* * *

# SYSTEM_TESTED: Estrogen-related receptor gamma (Homo sapiens) (UniProt P62508)
# Sequence (P62508 whole entry, looked up): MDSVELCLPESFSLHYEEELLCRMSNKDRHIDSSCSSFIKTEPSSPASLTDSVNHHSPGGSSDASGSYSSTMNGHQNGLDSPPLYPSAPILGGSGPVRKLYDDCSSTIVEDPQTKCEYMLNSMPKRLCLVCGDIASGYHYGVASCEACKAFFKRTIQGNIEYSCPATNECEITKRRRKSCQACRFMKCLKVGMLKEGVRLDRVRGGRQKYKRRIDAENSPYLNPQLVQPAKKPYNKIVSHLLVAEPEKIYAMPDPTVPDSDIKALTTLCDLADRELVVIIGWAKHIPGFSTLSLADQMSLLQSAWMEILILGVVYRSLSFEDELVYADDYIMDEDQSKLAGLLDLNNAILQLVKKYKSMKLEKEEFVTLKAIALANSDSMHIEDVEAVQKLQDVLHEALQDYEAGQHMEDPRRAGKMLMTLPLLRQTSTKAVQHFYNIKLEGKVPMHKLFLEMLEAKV
# ASSAY_EXPLANATION: ATG_ERRg_TRANS: Attagene TRANS-FACTORIAL HepG2 Assay for human Estrogen-Related Receptor gamma (ERRg) (AID 2282977);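 further: hits increase reporter signal over DMSO so potencies reflect activators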
# MEASUREMENT_PARAMETERS: HepG2 Attagene TRANS reporter, ERRg transactivation
# Experimental: ATG_TRANS is a cell-based, multiplexed-readout assay that uses HepG2, a human liver cell line, with measurements taken at 24 hours after chemical dosing in a 24-well plate.ATG_ERRg_TRANS is one of 30 assay component(s) measured or calculated from the ATG_TRANS assay. […] This assay endpoint, ATG_ERRg_TRANS, was analyzed in the positive analysis fitting direction relative to DMSO as the negative control and baseline of activity. […]
Records with an inconclusive call do not appear. Active and inactive are the calls of the source. Rule for the calls: active = hit-call score of the fitted dose curve at least 0.9, where 1 is the maximum; inconclusive = response in the unintended direction; inactive = score below 0.9.
RECORDED_ENDPOINT: outcome

[[record]]
compound = "C=CCC1=C(C)[C@@H](OC(=O)[C@@H]2[C@@H](C=C(C)C)C2(C)C)CC1=O"
reported_value = "inactive"

[[record]]
compound = "CCc1nn(C)c(C(=O)NCc2ccc(C(C)(C)C)cc2)c1Cl"
reported_value = "inactive"

[[record]]
compound = "CC(C)C1(C)N=C(c2nc3ccccc3cc2C(=O)O)NC1=O (configuration not stated)"
reported_value = "inactive"

[[record]]
compound = "CCNc1nc(Cl)nc(NCC)n1"
reported_value = "inactive"

[[record]]
compound = "C#CCOS(=O)OC1CCCCC1Oc1ccc(C(C)(C)C)cc1 (configuration not stated)"
reported_value = "inactive"

[[record]]
compound = "O=C(Nc1ccccc1)Nc1ccnc(Cl)c1"
reported_value = "inactive"

[[record]]
compound = "CON(C)C(=O)Nc1ccc(Cl)c(Cl)c1"
reported_value = "inactive"


* * *

# Read-out: Insulin Like Growth Factor 1 (IGF1), IGF1 (gene 3479)
# ASSAY_EXPLANATION: LTEA_HepaRG_IGF1: Life Technologies and Expression Analysis (LTEA) Assay for Insulin Like Growth Factor 1 (IGF1) using HepaRG (AID 2283506)
# MEASUREMENT_PARAMETERS: mRNA level, 48 h; actives raise or lower the signal
The source made the active and inactive calls. How the source made its calls: active means hit-call score of the fitted dose curve at least 0.9, where 1 is the maximum; inactive means score below 0.9.
Classes used: active, inactive

[[record]]
compound = "CCOC(=O)CC(SP(=S)(OC)OC)C(=O)OCC (stereo unspecified)"
label_class = "inactive"

[[record]]
compound = "N#Cc1nn(-c2c(Cl)cc(C(F)(F)F)cc2Cl)c(N)c1S(=O)C(F)(F)F (stereo unspecified)"
label_class = "active"

[[record]]
compound = "COP(N)(=O)SC (stereo unspecified)"
label_class = "inactive"

[[record]]
compound = "COC(=O)C=C(C)OP(=O)(OC)OC"
label_class = "inactive"

[[record]]
compound = "C=CCC1=C(C)[C@@H](OC(=O)[C@@H]2[C@@H](C=C(C)C)C2(C)C)CC1=O"
label_class = "active"

[[record]]
compound = "N#Cc1cc(Br)c(O)c(Br)c1"
label_class = "active"


* * *

# Read-out: sulfotransferase (SULT2A), SULT2A1 (gene 6822)
# ASSAY_EXPLANATION: CLD_SULT2A_48hr: CellzDirect (CLD) Gene Expression Assay for sulfotransferase (SULT2A) at 48 hours (AID 2283710);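 further: hits raise SULT2A1 transcript above the 0.2% DMSO vehicle baseline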
Records with an inconclusive call do not appear. Calls of active or inactive are those of the source. How the source made its calls: active means hit-call score of the fitted dose curve at least 0.9, where 1 is the maximum; inconclusive means response in the unintended direction; inactive means score below 0.9.
Classes used: active, inactive

[[record]]
compound = "O=C(Nc1ccccc1)Nc1ccnc(Cl)c1"
label_class = "inactive"

[[record]]
compound = "C=CC1(C)OC(=O)N(c2cc(Cl)cc(Cl)c2)C1=O (stereo unspecified)"
label_class = "inactive"

[[record]]
compound = "CON(C)C(=O)Nc1ccc(Cl)c(Cl)c1"
label_class = "inactive"

[[record]]
compound = "COC(=O)C=C(C)OP(=O)(OC)OC"
label_class = "inactive"

[[record]]
compound = "CCCCOC(=O)c1ccccc1C(=O)OCCCC"
label_class = "inactive"

[[record]]
compound = "CC(C)(C)c1ccc(CSc2cnn(C(C)(C)C)c(=O)c2Cl)cc1"
label_class = "inactive"

[[record]]
compound = "CCOC(=O)C(Cl)Cc1cc(-n2nc(C)n(C(F)F)c2=O)c(F)cc1Cl (stereo unspecified)"
label_class = "inactive"

[[record]]
compound = "COc1nc(C)nc(NC(=O)NS(=O)(=O)c2ccccc2CCC(F)(F)F)n1"
label_class = "inactive"

[[record]]
compound = "Cc1c(F)c(F)c(COC(=O)C2C(/C=C(\\Cl)C(F)(F)F)C2(C)C)c(F)c1F (stereo unspecified)"
label_class = "inactive"

[[record]]
compound = "Oc1ccccc1-c1ccccc1"
label_class = "inactive"

[[record]]
compound = "CC(C)Oc1cc(-n2nc(C(C)(C)C)oc2=O)c(Cl)cc1Cl"
label_class = "active"

[[record]]
compound = "O=C(O)c1nc(Cl)ccc1Cl"
label_class = "inactive"

[[record]]
compound = "N#Cc1nn(-c2c(Cl)cc(C(F)(F)F)cc2Cl)c(N)c1S(=O)C(F)(F)F (stereo unspecified)"
label_class = "inactive"

[[record]]
compound = "COC(=O)N(OC)c1ccccc1COc1ccn(-c2ccc(Cl)cc2)n1"
label_class = "active"

[[record]]
compound = "CCCC1COC(Cn2cncn2)(c2ccc(Cl)cc2Cl)O1 (stereo unspecified)"
label_class = "inactive"

[[record]]
compound = "CC(C)C1(C)N=C(c2nc3ccccc3cc2C(=O)O)NC1=O (stereo unspecified)"
label_class = "inactive"

[[record]]
compound = "C=CCC1=C(C)[C@@H](OC(=O)[C@@H]2[C@@H](C=C(C)C)C2(C)C)CC1=O"
label_class = "inactive"

[[record]]
compound = "N#Cc1cc(Br)c(O)c(Br)c1"
label_class = "inactive"

[[record]]
compound = "CCc1nn(C)c(C(=O)NCc2ccc(C(C)(C)C)cc2)c1Cl"
label_class = "active"

[[record]]
compound = "CS/C(C)=N/OC(=O)N(C)SN(C)C(=O)O/N=C(\\C)SC"
label_class = "inactive"

[[record]]
compound = "COC(=O)C(C)Oc1ccc(Oc2ccc(Cl)cc2Cl)cc1 (stereo unspecified)"
label_class = "inactive"


* * *

# Read-out: growth arrest and DNA damage 45 (GADD45A), GADD45A (gene 1647)
# ASSAY_EXPLANATION: LTEA_HepaRG_GADD45A: Life Technologies and Expression Analysis (LTEA) Assay for growth arrest and DNA damage 45 (GADD45A) using HepaRG (AID 2283458)
# MEASUREMENT_PARAMETERS: mRNA level, 48 h; actives raise or lower the signal
The source made the active and inactive calls. How the source made its calls: active means hit-call score of the fitted dose curve at least 0.9, where 1 is the maximum; inactive means score below 0.9.
RECORDED_ENDPOINT: outcome

[[record]]
smiles_structure = "CCOc1cc(Oc2ccc(C(F)(F)F)cc2Cl)ccc1[N+](=O)[O-]"
reported_value = "inactive"

[[record]]
smiles_structure = "CCCCNC(=O)OCC#CI"
reported_value = "inactive"

[[record]]
smiles_structure = "CCOP(=S)(OCC)SCn1c(=O)oc2cc(Cl)ccc21"
reported_value = "inactive"

